testMethodNotes: Rodent pharmacokinetic study
Format: in vivo, Male wistar rats
runParameters: plasma; Wistar/Male rat, 10 mg/kg, water, Oral; read-out: AUC1
Overview of reported AUC across a group of compounds:
Provide only the numeric value, understood in ng·h/mL.

Prompt line: Give AUC for the following compound: CCN1CCN(Cc2cc(S(=O)(=O)n3ccc4ccccc43)ccc2C)CC1.Cl.Cl
Response line: 1170

Prompt line: Give AUC for the following compound: Cc1cn(S(=O)(=O)c2ccc(Cl)c(CN3CCN(C)CC3)c2)c2ccccc12.Cl.Cl
Response line: 342

Prompt line: For the compound Cc1ccc(S(=O)(=O)n2ccc3ccccc32)cc1CN1CCN(C)CC1.Cl.Cl , give its reported AUC.
Response line: 3190
